Catalogue of IC50 values
biological target: human ALK2 R206H (Homo sapiens, UniProt Q04771, R206H); construct: expressed in transfected cells; host or cells: HEK293 (ATCC CRL1573), lentivirus transduction, blasticidin selection; test: Cell-based ALK2-R206H cell activity assay (Smad1-Ser463/Ser465 phosphorylation by AlphaLISA in HEK293-ALK2-R206H cells); conditions: read-out: Cell Line (Cell Assay IC50)
Sequence (Q04771 21-509 R206H): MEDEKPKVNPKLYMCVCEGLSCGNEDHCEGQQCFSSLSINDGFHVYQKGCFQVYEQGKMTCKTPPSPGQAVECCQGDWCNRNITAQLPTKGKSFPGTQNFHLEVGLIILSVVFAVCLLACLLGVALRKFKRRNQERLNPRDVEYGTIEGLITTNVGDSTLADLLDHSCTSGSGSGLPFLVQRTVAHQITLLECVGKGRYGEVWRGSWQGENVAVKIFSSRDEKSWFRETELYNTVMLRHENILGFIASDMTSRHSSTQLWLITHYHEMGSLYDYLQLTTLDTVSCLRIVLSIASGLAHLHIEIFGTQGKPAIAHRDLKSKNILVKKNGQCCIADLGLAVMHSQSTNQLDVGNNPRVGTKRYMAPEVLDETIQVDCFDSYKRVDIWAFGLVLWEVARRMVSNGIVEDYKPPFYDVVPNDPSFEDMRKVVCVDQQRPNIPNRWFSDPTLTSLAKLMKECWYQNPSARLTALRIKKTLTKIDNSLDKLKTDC

A selection of reference data follows.
Compound	Value measured
COC[C@H](C)N1CCC(OC)(c2ccc(-c3cc4c(N5CCN(C(=O)[C@H]6C[C@H](C#N)C6)CC5)ccnn4c3)nc2)CC1	< 100 nM
CC(C)NC(=O)N1CCN(c2ccnn3cc(-c4ccc(C5(F)CCNCC5)cc4)cc23)CC1	100 to 500 nM
CC(C)N1CCC[C@H](c2ccc(-c3cc4c(N5CCN(C(=O)C6CC6)CC5)ccnn4c3)cc2)C1	< 100 nM
CC(C)(C#N)c1ccc(-c2cc3c(N4CCN(C(=O)C5CC5)CC4)ccnn3c2)cc1	100 to 500 nM

// next entry
For O=C(C1CC1)N1CCN(c2ccnn3cc(-c4ccc(N5CCN6CCCC6C5)cc4)cc23)CC1 (centres unmarked) , what is its reported IC50?
< 100 nM
